List of microsomal CLint values.
Test: Human liver microsomal stability of compound in microsomal protein, PBS buffer pH 7.4, NADPH, glucose-6-phosphate and glucose-6-phosphate dehydrogenase media. Aliquotes were taken at 5 time points and after stopping the reaction, supernatants were analyzed using HPLC coupled with a tandem mass spectrometer. The elimination constant, half-life, and intrinsic clearance are determined as results using linear regression analysis.
Format: ADME, microsomes, Microsome
Details: liver microsomes

SMILES STRING: O=C(Nc1ccc2c(c1)CNC2)c1cc(Cl)cc2ccncc12
microsomal CLint: < 10 µL/min/mg

SMILES STRING: NCc1cccc(NC(=O)c2cc(Cl)cc(NC(=O)OCc3ccccc3)c2)c1
microsomal CLint: < 10 µL/min/mg

SMILES STRING: NCc1cc(C(=O)O)cc([C@@H]2C[C@H]2c2cc(Cl)cc(NC(=O)OCc3ccccc3)c2)c1
microsomal CLint: < 10 µL/min/mg

SMILES STRING: Clc1ccc2[nH]cc(Cc3ccc(-c4nn[nH]n4)cc3)c2c1
microsomal CLint: < 10 µL/min/mg

SMILES STRING: Cc1cc(-c2ccc([C@@H](NC(=O)OCc3ccccc3)C(=O)Nc3cccc(CN)c3)cc2)cs1
microsomal CLint: 29.5 µL/min/mg

SMILES STRING: O=C(Nc1ccc2c(c1)CNC2)c1cc(F)cc2[nH]ncc12
microsomal CLint: < 10 µL/min/mg

SMILES STRING: CC(C)NC(=O)[C@H](Nc1ccc2c(c1)CNC2)c1cc(Cl)cc2[nH]ncc12
microsomal CLint: < 10 µL/min/mg

SMILES STRING: CNC(=O)[C@H](Nc1cccc(-c2nn[nH]n2)c1)c1cc(Cl)cc2[nH]ncc12
microsomal CLint: < 10 µL/min/mg

SMILES STRING: O=C(Nc1cc2c(c(C3=CCS(=O)(=O)CC3)c1)CNC2)c1cc(F)cc2[nH]ncc12
microsomal CLint: < 10 µL/min/mg

SMILES STRING: CC[C@@H](Cc1nnn[nH]1)c1ccc(NC(=O)c2cc(Cl)cc(NC(=O)OCc3ccccc3)c2)cc1
microsomal CLint: 24.9 µL/min/mg

====

Assay: Human liver microsomal stability of compound in microsomal protein, PBS buffer pH 7.4, NADPH, glucose-6-phosphate and glucose-6-phosphate dehydrogenase media. Aliquotes were taken at 5 time points and after stopping the reaction, supernatants were analyzed using HPLC coupled with a tandem mass spectrometer. The elimination constant, half-life, and intrinsic clearance are determined as results using linear regression analysis.
Format: ADME, microsomes, Microsome
Conditions: microsomes

SMILES STRING: CCCCNC(=O)[C@H](Nc1ccc2c(c1)CNC2)c1cc(Cl)cc(C2CC2)c1
Remaining (without cofactor): 97.272%

SMILES STRING: NCc1cccc([C@@H]2C[C@H]2c2cc(Cl)cc(NC(=O)OCc3ccccc3)c2)c1
Remaining (without cofactor): 92.769%

SMILES STRING: O=C1Cc2c(cccc2C(=O)Nc2ccc3c(c2)CNC3)N1
Remaining (without cofactor): 85.739%

SMILES STRING: O=C(Nc1ccc2c(c1)CNC2)c1cc(F)cc2[nH]c(-c3ccc(F)cc3)nc12
Remaining (without cofactor): 94.287%

SMILES STRING: NCc1cccc(NC(=O)CN(C(=O)OCc2ccccc2)c2ccc(OCc3ccccc3)cc2)c1
Remaining (without cofactor): 101%

SMILES STRING: O=C(O)COc1cccc(NC(=O)c2cc(Cl)cc(NC(=O)OCc3ccccc3)c2)c1
Remaining (without cofactor): 109.497%

SMILES STRING: CNC(=O)[C@H](Nc1cc(Cl)cc(NC(=O)OCc2ccccc2)c1)c1cccc(-c2nn[nH]n2)c1
Remaining (without cofactor): 102.307%

SMILES STRING: CC(C)NC(=O)[C@H](Nc1ccc2c(c1)CNC2)c1cc(Cl)cc2[nH]ncc12
Remaining (without cofactor): 107.23%

SMILES STRING: O=C(Nc1ccc2c(c1)CNC2)c1ccc2[nH]cc(C3CCNCC3)c2c1
Remaining (without cofactor): 110.939%
